- target: T1, rhesus macaque/cynomolgus IFN-γ (rhesus macaque/cynomolgus, UniProt P63310 24-165)
- T1 construct: also called R&D systems 961-RM-025
- T1 sequence (looked up): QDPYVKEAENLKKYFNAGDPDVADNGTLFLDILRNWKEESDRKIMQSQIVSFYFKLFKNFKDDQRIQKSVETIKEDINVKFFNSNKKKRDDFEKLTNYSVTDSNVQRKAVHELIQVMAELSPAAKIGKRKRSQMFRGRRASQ
- assay-method-text: ELISA, biotinylated rhesus macaque/cynomolgus IFN-γ on streptavidin plate, HRP anti-human IgG, OD 450-650 nm
assay-readout: EC50 (read off the curve)

Which measured EC50 (read off the curve) value corresponds to antibody 2A6_A (antibody, human IgG1, V domains shown, removes the N-glycosylation site of the VH; human IgG1 lambda; also called c2A6_A) VH: EVQLVESGGGLVKPGDSLTVSCVASGFTFSNYFIHWVRQAPGKGLEWVATISGRTKYMFYSDSLRGRFTVSRDNAANSVYLHMSSLRGEDTALYYCVRGYDHSDSNSAADLLHWGRGTLVTVSS VL: NFMLTQPLSVSGYPGKTIVISCVRSSGSVASHYVQWFQQRPGSAPAMVIYEDSHRPSGIPDRFSGSVDASSNSASLTISGLKTEDEADYFCQSYYGNNQVLFGGGTKLTVL ? ~5 ng/mL

Same read-out for antibody AB (antibody, human IgG1, V domains shown, Combination of the 2A6 VH heavy chain and the 2B6 VL light chain; human IgG1 lambda; also called VH2A6/VL2B6) VH: EVQLVESGGGLVKPGDSLTVSCVASGFTFSNYFIHWVRQAPGKGLEWVATISGRTKYMFYSDSLRGRFTVSRDNANNSVYLHMSSLRGEDTALYYCVRGYDHSDSNSAADLLHWGRGTLVTVSS VL: NFMLTQPHSVSESPGKTITISCTRGRGYIASYYVQWYQQRPGGVPKIVVFEDTQRPSGVPDRISGSIDTSTNSASLTISGLQTEDEADYYCQSYDDANHVIFGGGTKLTVL ? ~5 ng/mL

Same read-out for antibody 2A6 (antibody, human IgG1, V domains shown, partial N-linked glycosylation at Asn-76 of the VH, Human antibody from a single B cell, cloned into human IgG1 lambda expression vectors and made in FreeStyle 293-F cells) VH: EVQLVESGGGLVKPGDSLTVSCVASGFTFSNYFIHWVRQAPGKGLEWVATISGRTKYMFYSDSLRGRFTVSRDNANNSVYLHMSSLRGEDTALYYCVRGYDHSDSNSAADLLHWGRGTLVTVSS VL: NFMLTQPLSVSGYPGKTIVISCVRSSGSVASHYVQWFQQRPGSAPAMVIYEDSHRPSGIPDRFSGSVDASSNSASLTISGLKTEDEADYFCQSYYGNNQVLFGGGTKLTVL ? ~5 ng/mL

Same read-out for antibody 2B6 (antibody, human IgG1, V domains shown, Human IgG1 lambda) VH: EVQLVESGGGLVKPGGSLRLSCAASGFPFSRYSMHWVRQAPGKGLEWVSSMTSRTNHKYYADSLKGRFLISRDNDRDSLYLEMNSLGVEDTAIYFCARGYDTSGSDSGVDFQYWGQGTLVTVSS VL: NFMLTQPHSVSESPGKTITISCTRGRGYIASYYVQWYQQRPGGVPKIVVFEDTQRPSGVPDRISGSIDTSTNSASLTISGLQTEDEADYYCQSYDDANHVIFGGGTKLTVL ? ~5 ng/mL

Same read-out for antibody 2A6_Q (antibody, human IgG1, V domains shown, removes the N-glycosylation site of the VH; human IgG1 lambda; also called c2A6_Q) VH: EVQLVESGGGLVKPGDSLTVSCVASGFTFSNYFIHWVRQAPGKGLEWVATISGRTKYMFYSDSLRGRFTVSRDNAQNSVYLHMSSLRGEDTALYYCVRGYDHSDSNSAADLLHWGRGTLVTVSS VL: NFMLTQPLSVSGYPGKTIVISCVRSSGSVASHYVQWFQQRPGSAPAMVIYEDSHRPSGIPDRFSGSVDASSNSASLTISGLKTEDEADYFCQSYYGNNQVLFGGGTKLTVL ? ~5 ng/mL

Reference source for all entries: patent US20210171624A1
